assayed target: T1, recombinant human IL-23 (human, UniProt Q9NPF7 20-189; P29460 23-328)
T1 construct: also called hIL-23
T1 sequence 1: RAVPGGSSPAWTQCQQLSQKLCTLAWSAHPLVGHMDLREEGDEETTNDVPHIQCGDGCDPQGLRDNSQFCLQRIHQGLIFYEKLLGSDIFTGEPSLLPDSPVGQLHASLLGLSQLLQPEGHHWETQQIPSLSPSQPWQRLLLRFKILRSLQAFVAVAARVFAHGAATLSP
T1 sequence 2: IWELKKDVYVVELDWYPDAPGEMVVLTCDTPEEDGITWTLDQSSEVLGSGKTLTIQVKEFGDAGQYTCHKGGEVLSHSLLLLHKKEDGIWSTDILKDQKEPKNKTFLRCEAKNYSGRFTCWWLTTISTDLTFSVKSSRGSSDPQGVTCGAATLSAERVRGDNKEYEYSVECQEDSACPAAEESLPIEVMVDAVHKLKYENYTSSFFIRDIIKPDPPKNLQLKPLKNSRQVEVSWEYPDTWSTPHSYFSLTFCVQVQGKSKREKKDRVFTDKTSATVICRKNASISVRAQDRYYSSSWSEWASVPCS
measurement protocol: IL-23/IL-23R inhibition ELISA (optimised protocol, OD450): plate coated with human IL23R Fc chimera, antibody pre-incubated with constant human IL-23, bound IL-23 detected with biotinylated anti-human IL-12; purified antibody

binder | IC50 (read off the curve)
A9M3 (antibody, V domains shown) VH: QVQLVQSGAEVKKPGSSVKVSCKASGYTFTSYGITWVRQAPGQGLEWMGEDYPRSGNTYYNEKFKGRVTITADKSTSTAYMELSSLRSEDTAVYYCARVEFISTVVAPYYYALDYWGQGTLVTVSS VL: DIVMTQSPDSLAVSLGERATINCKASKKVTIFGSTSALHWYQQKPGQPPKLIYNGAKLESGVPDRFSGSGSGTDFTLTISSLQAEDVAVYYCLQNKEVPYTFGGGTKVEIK | ~100 pM

Data credit: patent US20090123479A1
